- assayed target: recombinant human TFPI (tissue factor pathway inhibitor) (human, UniProt P10646 29-304)
- method: cell-based or functional assay
recorded metric: FXa assay % of FXa alone, 5 nM Ab, 10 nM TFPI (%)
# number only, unit % dropped from output

Just so you know, measured FXa assay % of FXa alone, 5 nM Ab, 10 nM TFPI for clone 1015 (antibody, V domains shown) VH: EVQLVESGGGLVKPGGSLRLSCAASGFTFSSYAMNWVRQAPGKGLEWVSTITTGGSHTYYADSVEGRFTISRDNAKNSLYLQMNSLRAEDTAVYYCARQDGNFLMDYWGQGTLVTVSS VL: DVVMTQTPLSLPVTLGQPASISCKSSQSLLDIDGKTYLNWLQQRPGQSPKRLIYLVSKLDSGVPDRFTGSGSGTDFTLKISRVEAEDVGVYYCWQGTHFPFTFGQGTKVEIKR came out at 14
